Data origin, for the record: patent US20240010639A1

experiment: Toxicokinetic evaluation of 14-day repeated intragastric administration to SD rats; format: in vivo; conditions: both sexes, SD, rat, plasma, po, 3 mg/kg, repeated intragastric 3.0 mg/kg, Day 7, read-out: Clearance CL/F
Attribute measured: CL/F at 7 day (mL/min/kg)

>  <Compound>
CC(C)n1c(=O)cc(N[C@@H](C)c2ccccc2)[nH]c1=O [MYK-461, reference compound]

>  <Attribute measured>
CL/F at 7 day

>  <Data value>
1.97

$$$$

* * *

assay: Toxicokinetic evaluation of 14-day repeated intragastric administration to SD rats; assay type: in vivo; conditions: both sexes, SD, rat, plasma, po, 1.5 mg/kg, repeated intragastric 1.5 mg/kg, Day 14, read-out: Residence time MRT
Attribute measured: MRT at 14 day (h)

>  <Compound>
CC(C)n1c(=O)cc(N[C@@H](C)c2ccccc2)[nH]c1=O [MYK-461, reference compound]

>  <Attribute measured>
MRT at 14 day

>  <Measure unit>
h

>  <Data value>
38.5

$$$$

* * *

assay: Toxicokinetic evaluation of 14-day repeated intragastric administration to SD rats; assay type: in vivo; conditions: both sexes, SD, rat, plasma, po, 5 mg/kg, repeated intragastric 5 mg/kg, Day 1, read-out: Plasma concentration Cmax
Attribute measured: Cmax at 1 day (ng/mL)

>  <Compound>
Cc1ccc(F)c([C@H](C)Nc2nc(=O)n(C3CCOCC3)c(=O)[nH]2)c1 [Example 16]

>  <Attribute measured>
Cmax at 1 day

>  <Measure unit>
ng/mL

>  <Data value>
5740

$$$$

* * *

test: Toxicokinetic evaluation of 14-day repeated intragastric administration to SD rats; type: in vivo; settings: both sexes, SD, rat, plasma, po, 1.5 mg/kg, repeated intragastric 1.5 mg/kg, Day 14, read-out: Half-life T1/2 (converted)

>  <Molecule>
CC(C)n1c(=O)cc(N[C@@H](C)c2ccccc2)[nH]c1=O [MYK-461, reference compound]

>  <Measure unit>
h

>  <half-life at 14 day>
26.2

$$$$

* * *

assay: Toxicokinetic evaluation of 14-day repeated intragastric administration to SD rats; assay type: in vivo; details: both sexes, SD, rat, plasma, po, 30 mg/kg, repeated intragastric 30 mg/kg, Day 7, read-out: Plasma concentration Cmax
Attribute measured: Cmax (ng/mL)

>  <Smiles>
Cc1ccc(F)c([C@H](C)Nc2nc(=O)n(C3CCOCC3)c(=O)[nH]2)c1

>  <Measure unit>
ng/mL

>  <Data value>
21600

$$$$

* * *

assay: Toxicokinetic evaluation of 14-day repeated intragastric administration to SD rats; type: in vivo; conditions: both sexes, SD, rat, plasma, po, 5 mg/kg, repeated intragastric 5 mg/kg, Day 1, read-out: Residence time MRT

>  <Smiles>
Cc1ccc(F)c([C@H](C)Nc2nc(=O)n(C3CCOCC3)c(=O)[nH]2)c1

>  <Measure unit>
h

>  <MRT at 1 day>
5

$$$$

* * *

assay: Pharmacokinetic evaluation in beagles; format: in vivo; conditions: both (Example 16), male (MYK-461), beagle, dog, plasma, intravenous injection, 0.5 mg/kg, read-out: Residence time MRT

>  <Molecule>
CC(C)n1c(=O)cc(N[C@@H](C)c2ccccc2)[nH]c1=O [MYK-461, reference compound]

>  <MRT>
72.2 h

$$$$
>  <Molecule>
Cc1ccc(F)c([C@H](C)Nc2nc(=O)n(C3CCOCC3)c(=O)[nH]2)c1 [Example 16]

>  <MRT>
7.5 h

$$$$

* * *

experiment: Pharmacokinetic evaluation in beagles; format: in vivo; details: both (Example 16), male (MYK-461), beagle, dog, plasma, po, intragastric administration, 2 mg/kg, read-out: Half-life T1/2 (converted)
Below: a set of entries, each annotated with reported half-life.

>  <Molecule>
Cc1ccc(F)c([C@H](C)Nc2nc(=O)n(C3CCOCC3)c(=O)[nH]2)c1

>  <half-life [h]>
7.5

$$$$
>  <Molecule>
CC(C)n1c(=O)cc(N[C@@H](C)c2ccccc2)[nH]c1=O [MYK-461, reference compound]

>  <half-life [h]>
38.9

$$$$

* * *

assay: Toxicokinetic evaluation of 14-day repeated intragastric administration to SD rats; format: in vivo; details: both sexes, SD, rat, plasma, po, 0.5 mg/kg, repeated intragastric 0.5 mg/kg, Day 1, read-out: Half-life T1/2 (converted)

>  <Molecule>
CC(C)n1c(=O)cc(N[C@@H](C)c2ccccc2)[nH]c1=O [MYK-461, reference compound]

>  <Measure unit>
h

>  <half-life>
13.3

$$$$

* * *

assay: Pharmacokinetic evaluation in beagles; type: in vivo; conditions: both (Example 16), male (MYK-461), beagle, dog, plasma, po, intragastric administration, 2 mg/kg, read-out: Area under curve AUC
Attribute measured: AUC (ng·h/mL)

>  <Molecule>
Cc1ccc(F)c([C@H](C)Nc2nc(=O)n(C3CCOCC3)c(=O)[nH]2)c1 [Example 16]

>  <Measure unit>
ng·h/mL

>  <Data value>
3100

$$$$
>  <Molecule>
CC(C)n1c(=O)cc(N[C@@H](C)c2ccccc2)[nH]c1=O [MYK-461, reference compound]

>  <Measure unit>
ng·h/mL

>  <Data value>
8720

$$$$

* * *

test: Toxicokinetic evaluation of 14-day repeated intragastric administration to SD rats; format: in vivo; details: both sexes, SD, rat, plasma, po, 5 mg/kg, repeated intragastric 5 mg/kg, Day 1, read-out: Half-life T1/2 (converted)

>  <Smiles>
Cc1ccc(F)c([C@H](C)Nc2nc(=O)n(C3CCOCC3)c(=O)[nH]2)c1

>  <half-life at 1 day>
4.8 h

$$$$

* * *

assay: Pharmacokinetic evaluation in cynomolgus monkeys; assay type: in vivo; conditions: both (Example 16), male (MYK-461), cynomolgus monkey, plasma, intravenous injection, 0.5 mg/kg, read-out: Area under curve AUC
Attribute measured: AUC (ng·h/mL)

>  <Molecule>
CC(C)n1c(=O)cc(N[C@@H](C)c2ccccc2)[nH]c1=O [MYK-461, reference compound]

>  <Data value>
976

$$$$
>  <Molecule>
Cc1ccc(F)c([C@H](C)Nc2nc(=O)n(C3CCOCC3)c(=O)[nH]2)c1

>  <Data value>
1020

$$$$

* * *

experiment: Toxicokinetic evaluation of 14-day repeated intragastric administration to SD rats; assay type: in vivo; details: both sexes, SD, rat, plasma, po, 0.5 mg/kg, repeated intragastric 0.5 mg/kg, Day 1, read-out: Residence time MRT

>  <Compound>
CC(C)n1c(=O)cc(N[C@@H](C)c2ccccc2)[nH]c1=O [MYK-461, reference compound]

>  <MRT>
19 h

$$$$

* * *

assay: Toxicokinetic evaluation of 14-day repeated intragastric administration to SD rats; format: in vivo; details: both sexes, SD, rat, plasma, po, 30 mg/kg, repeated intragastric 30 mg/kg, Day 1, read-out: Plasma concentration Cmax
Attribute measured: Cmax (ng/mL)

>  <Molecule>
Cc1ccc(F)c([C@H](C)Nc2nc(=O)n(C3CCOCC3)c(=O)[nH]2)c1 [Example 16]

>  <Data value>
18700

$$$$

* * *

experiment: Pharmacokinetic evaluation in cynomolgus monkeys; assay type: in vivo; conditions: both (Example 16), male (MYK-461), cynomolgus monkey, plasma, po, intragastric administration, 2 mg/kg, read-out: Plasma concentration Cmax

>  <Compound>
CC(C)n1c(=O)cc(N[C@@H](C)c2ccccc2)[nH]c1=O [MYK-461, reference compound]

>  <Cmax [ng/mL]>
563

$$$$
>  <Compound>
Cc1ccc(F)c([C@H](C)Nc2nc(=O)n(C3CCOCC3)c(=O)[nH]2)c1

>  <Cmax [ng/mL]>
553

$$$$

* * *

test: Toxicokinetic evaluation of 14-day repeated intragastric administration to SD rats; type: in vivo; conditions: both sexes, SD, rat, plasma, po, 5 mg/kg, repeated intragastric 5 mg/kg, Day 14, read-out: Half-life T1/2 (converted)

>  <Molecule>
Cc1ccc(F)c([C@H](C)Nc2nc(=O)n(C3CCOCC3)c(=O)[nH]2)c1 [Example 16]

>  <half-life at 14 day>
5.1 h

$$$$

* * *

test: Toxicokinetic evaluation of 14-day repeated intragastric administration to SD rats; format: in vivo; conditions: both sexes, SD, rat, plasma, po, 0.5 mg/kg, repeated intragastric 0.5 mg/kg, Day 14, read-out: Half-life T1/2 (converted)

>  <Compound>
CC(C)n1c(=O)cc(N[C@@H](C)c2ccccc2)[nH]c1=O [MYK-461, reference compound]

>  <half-life at 14 day>
32.9 h

$$$$

* * *

test: Toxicokinetic evaluation of 14-day repeated intragastric administration to SD rats; format: in vivo; conditions: both sexes, SD, rat, plasma, po, 1.5 mg/kg, repeated intragastric 1.5 mg/kg, Day 7, read-out: Apparent volume of distribution Vz/F
Attribute measured: Vd/F at 7 day (L/kg)

>  <Compound>
CC(C)n1c(=O)cc(N[C@@H](C)c2ccccc2)[nH]c1=O [MYK-461, reference compound]

>  <Attribute measured>
Vd/F at 7 day

>  <Measure unit>
L/kg

>  <Data value>
4.8

$$$$
